Test system: MDA-MB-231 breast
Experiment: NCI-60 one-dose screen, 48 h (100 = growth as untreated, 0 = no growth, -100 = all killed)
Details: 10 µM unless noted
The panel holds about 83,000 compounds, 20% with a hit somewhere; the sample as a whole holds those more often.
QUANTITY KIND: growth (%)

INSERT INTO measurements (compound, quantity_kind, result_units, assay_value) VALUES
  ('Nc1nc2c(c3ncccc13)C(c1cccc(Br)c1)Cc1ncccc1-2 (stereo not drawn)', 'growth', '%', 20.4),
  ('COc1ccc(-c2c(C)noc2-c2ccc(O)cc2O)cc1', 'growth', '%', 108),
  ('CC/C=C\C[C@H](F)C/C=C1/C(=O)C=C[C@@H]1C/C=C\CCCC(=O)O', 'growth', '%', 73),
  ('CN(C)C(=O)c1cc2cnc(Nc3ccc(-c4csc5c(=O)cc(N6CCNCC6)oc45)cc3)nc2n1C1CCCC1', 'growth', '%', 9.91),
  ('O=C(Nc1cccc2[nH]c(C(F)(F)F)nc12)c1ccc(Br)cc1F', 'growth', '%', 30.7),
  ('c1ccc(CSc2ncnc3nc[nH]c23)nc1', 'growth', '%', 97.6),
  ('CN1CCN(Cc2ccc(NC(=O)c3cncc(C#Cc4cncc5nccnc45)c3)cc2C(F)(F)F)CC1', 'growth', '%', 26.9),
  ('O=c1c2cccc3c(Nc4ccccn4)ccc(c32)c2nc3ccccc3n12', 'growth', '%', 70.6),
  ('S=c1[nH]nc(CSc2ncnc3c2c(-c2ccccc2)cn3-c2ccc(Cl)cc2)o1', 'growth', '%', 94.3),
  ('C=C1C(=O)O[C@H]2[C@H]1CC/C(Cn1cc(Cn3ccc4cc(Cl)ccc43)nn1)=C\CC[C@@]1(C)O[C@@H]21', 'growth', '%', -51.8),
  ('CC(C)C1=C[C@@]23CC[C@@H]4[C@](C)(CCC[C@@]4(C)C(=O)OCC#CCN4CCCC4)[C@H]2C[C@@H]1[C@H]1C(=O)OC(=O)[C@H]13', 'growth', '%', 98.3),
  ('O=C(/C=C/c1ccc(B(O)O)cc1)/C=C/c1ccc(B(O)O)cc1', 'growth', '%', 38.6),
  ('COc1nc2c(cc1S(=O)(=O)c1ccccc1)CCc1c-2cnn1-c1ccc(Cl)cc1', 'growth', '%', 95.3);

====

System: HT29 colon
Assay: NCI-60 one-dose screen, 48 h (100 = growth as untreated, 0 = no growth, -100 = all killed)
Conditions: 10 µM unless noted
The panel holds about 83,000 compounds, 20% with a hit somewhere; the sample as a whole holds those more often.
QUANTITY KIND: growth (%)

INSERT INTO results (compound, result_units, assay_value) VALUES
  ('CC/C=C\C[C@H](O)C/C=C1/C(=O)C=C[C@@H]1C/C=C\CCCC(=O)NC', '%', 0.814),
  ('C/C=C/C(N)=O', '%', 102),
  ('COc1cc(C2CC(=O)Nc3c2c(C)nn3-c2nc3ccccc3[nH]2)cc(OC)c1OC (stereo not given)', '%', 109),
  ('O=C1Nc2ccccc2C12CC(c1ccc(Cl)cc1)=NN2 (stereo not given)', '%', 97.1),
  ('CN[C@@]12CC3(C=CC(=O)C=C3)O[C@]1(Cc1ccc(OC)cc1)N(C)C(=O)N2', '%', 8.19),
  ('Cc1ccc(Nc2c(C(N)=O)cnc3ccc(-c4csc(N)n4)cc23)cc1', '%', 103),
  ('c1c2c(cc3c1OCO3)Cc1cc3c(cc1Cc1cc4c(cc1C2)OCO4)OCO3', '%', 108),
  ('CN(C)CCOc1ccc(-c2nc3ccc(-c4nc5ccc(N6CCN(C)CC6)cc5[nH]4)cc3[nH]2)cc1', '%', 42.4),
  ('Cc1ccc(Nc2nc(N)nc(Nc3ccc4ccccc4c3)n2)cc1', '%', 11.2),
  ('O=c1cc(-c2ccccc2)[nH]c2ccccc12', '%', 15.3),
  ('Cn1c2ccccc2c2c3[nH]c(=O)[nH]c(=O)c3c3c4ccccc4n(C)c3c21', '%', 14.4),
  ('C=CCSc1nnc(-c2ccc(C(C)(C)C)cc2)n1-c1cccc(C(F)(F)F)c1', '%', 26.3),
  ('COc1ccc(C(=O)COc2ccc(/C=C3\Oc4ccc(Cl)cc4C3=O)cc2)cc1', '%', 109),
  ('NC(CC(=O)O)C(=O)OCc1ccccc1 (stereo not given)', '%', 115),
  ('COc1ccc(-c2c(C)noc2-c2ccc(O)cc2O)cc1', '%', 102);
